# System: St. pneumo P1
# ASSAY: standard broth micro-dilution MIC
# Format: cell-based
# EXPERIMENTAL CONDITIONS: Table 2C; strain P1
Listed next: entries and their corresponding MIC St. pneumo P1.

## Task Looking for the measured MIC St. pneumo P1 of CC(=O)NC1C(OC2c3ccc(c(Cl)c3)Oc3cc4cc(c3OC3OC(CO)C(O)C(O)C3NCc3ccc(OC(F)(F)F)cc3)Oc3ccc(cc3Cl)CC3NC(=O)C(NCc5ccc(OC(F)(F)F)cc5)c5ccc(O)c(c5)Oc5cc(O)cc(c5)C(NC3=O)C(=O)NC4C(=O)NC3C(=O)NC2C(=O)NC(C(=O)O)c2cc(O)cc(OC4OC(CO)C(O)C(O)C4O)c2-c2cc3ccc2O)OC(CO)C(O)C1O (stereo not drawn) , can you help?
## Result 0.05 µg/mL

## Task Entry CC(=O)NC1C(OC2c3ccc(c(Cl)c3)Oc3cc4cc(c3OC3OC(CO)C(O)C(O)C3NCc3ccc5ccccc5c3)Oc3ccc(cc3Cl)CC3NC(=O)C(NCc5ccc6ccccc6c5)c5ccc(O)c(c5)Oc5cc(O)cc(c5)C(NC3=O)C(=O)NC4C(=O)NC3C(=O)NC2C(=O)NC(C(=O)O)c2cc(O)cc(OC4OC(CO)C(O)C(O)C4O)c2-c2cc3ccc2O)OC(CO)C(O)C1O (stereo not drawn) please
## Result ≤ .06 µg/mL

## Task Entry CC(=O)NC1C(OC2c3ccc(c(Cl)c3)Oc3cc4cc(c3OC3OC(CO)C(O)C(O)C3NCc3ccc(C=Cc5ccccc5)cc3)Oc3ccc(cc3Cl)CC3NC(=O)C(N)c5ccc(O)c(c5)Oc5cc(O)cc(c5)C(NC3=O)C(=O)NC4C(=O)NC3C(=O)NC2C(=O)NC(C(=O)O)c2cc(O)cc(OC4OC(CO)C(O)C(O)C4O)c2-c2cc3ccc2O)OC(CO)C(O)C1O (stereo not drawn) please
## Result ≤ .06 µg/mL

----------
# Test system: S. aureus 489
# ASSAY: standard broth micro-dilution MIC
# Format: cell-based
# EXPERIMENTAL CONDITIONS: Table 2A; strain 489
Listed next: entries and their corresponding MIC S. aureus 489.
Record the result as number plus unit.

| COMPOUND | MIC S. aureus 489 |
| --- | --- |
| CCCCc1ccc(CNC2C(=O)NC3Cc4ccc(c(Cl)c4)Oc4cc5cc(c4OC4OC(CO)C(O)C(O)C4NCc4ccc(CCCC)cc4)Oc4ccc(cc4Cl)C(OC4OC(CO)C(O)C(O)C4NC(C)=O)C4NC(=O)C(NC(=O)C5NC(=O)C(NC3=O)c3cc(O)cc(c3)Oc3cc2ccc3O)c2ccc(O)c(c2)-c2c(OC3OC(CO)C(O)C(O)C3O)cc(O)cc2C(C(=O)O)NC4=O)cc1 (centres unmarked) | 0.5 µg/mL |

# ---- query compound ----
## Task Looking for the measured MIC S. aureus 489 of CC(=O)NC1C(OC2c3ccc(c(Cl)c3)Oc3cc4cc(c3OC3OC(CO)C(O)C(O)C3NCc3ccc(C=Cc5ccccc5)cc3)Oc3ccc(cc3Cl)CC3NC(=O)C(N)c5ccc(O)c(c5)Oc5cc(O)cc(c5)C(NC3=O)C(=O)NC4C(=O)NC3C(=O)NC2C(=O)NC(C(=O)O)c2cc(O)cc(OC4OC(CO)C(O)C(O)C4O)c2-c2cc3ccc2O)OC(CO)C(O)C1O (centres unmarked) , can you help?
## Result 0.25 µg/mL

----------
# Tested on: S. h. 415
# ASSAY: standard broth micro-dilution MIC
# Type: cell-based
# EXPERIMENTAL CONDITIONS: Table 2B; strain 415
Listed next: entries and their corresponding MIC S. h. 415.
Report the figure in mg/L without appending any unit label.

See these solved cases before continuing.
| COMPOUND | MIC S. h. 415 / mg/L |
| --- | --- |
| CC(=O)NC1C(OC2c3ccc(c(Cl)c3)Oc3cc4cc(c3OC3OC(CO)C(O)C(O)C3N)Oc3ccc(cc3Cl)CC3NC(=O)C(NCc5ccc(-c6ccccc6)cc5)c5ccc(O)c(c5)Oc5cc(O)cc(c5)C(NC3=O)C(=O)NC4C(=O)NC3C(=O)NC2C(=O)NC(C(=O)O)c2cc(O)cc(OC4OC(CO)C(O)C(O)C4O)c2-c2cc3ccc2O)OC(CO)C(O)C1O (stereo not drawn) | 8 |
| CC(=O)NC1C(OC2c3ccc(c(Cl)c3)Oc3cc4cc(c3OC3OC(CO)C(O)C(O)C3NCc3ccc(-c5ccccc5)cc3)Oc3ccc(cc3Cl)CC3NC(=O)C(NCc5ccc(-c6ccccc6)cc5)c5ccc(O)c(c5)Oc5cc(O)cc(c5)C(NC3=O)C(=O)NC4C(=O)NC3C(=O)NC2C(=O)NC(C(=O)O)c2cc(O)cc(OC4OC(CO)C(O)C(O)C4O)c2-c2cc3ccc2O)OC(CO)C(O)C1O.O=C(O)C(F)(F)F (stereo not drawn) | 4 |

## Task Looking for the measured MIC S. h. 415 of CC(=O)NC1C(OC2c3ccc(c(Cl)c3)Oc3cc4cc(c3OC3OC(CO)C(O)C(O)C3NCc3ccc(C=Cc5ccccc5)cc3)Oc3ccc(cc3Cl)CC3NC(=O)C(N)c5ccc(O)c(c5)Oc5cc(O)cc(c5)C(NC3=O)C(=O)NC4C(=O)NC3C(=O)NC2C(=O)NC(C(=O)O)c2cc(O)cc(OC4OC(CO)C(O)C(O)C4O)c2-c2cc3ccc2O)OC(CO)C(O)C1O (stereo not drawn) , can you help?
## Result 32

----------
# Tested on: S. aureus 491
# ASSAY: standard broth micro-dilution MIC
# Format: cell-based
# EXPERIMENTAL CONDITIONS: Table 2A; strain 491
# Description: The antibacterial efficacy of the present teicoplanin derivatives is illustrated by the following tables. The minimal inhibitory concentrations (MICs) were determined using a standard broth micro-dilution assay.
Listed next: entries and their corresponding MIC S. aureus 491.
Report the figure in µg/mL without appending any unit label.

See these solved cases before continuing.
| COMPOUND | UNIT SPEC | MIC S. aureus 491 |
| --- | --- | --- |
| CC(=O)NC1C(OC2c3ccc(c(Cl)c3)Oc3cc4cc(c3OC3OC(CO)C(O)C(O)C3NCc3ccc(C=Cc5ccccc5)cc3)Oc3ccc(cc3Cl)CC3NC(=O)C(N)c5ccc(O)c(c5)Oc5cc(O)cc(c5)C(NC3=O)C(=O)NC4C(=O)NC3C(=O)NC2C(=O)NC(C(=O)O)c2cc(O)cc(OC4OC(CO)C(O)C(O)C4O)c2-c2cc3ccc2O)OC(CO)C(O)C1O (centres unmarked) | µg/mL | 1 |
| CC(=O)NC1C(OC2c3ccc(c(Cl)c3)Oc3cc4cc(c3OC3OC(CO)C(O)C(O)C3NCc3ccc(Oc5ccccc5)cc3)Oc3ccc(cc3Cl)CC3NC(=O)C(NCc5ccc(Oc6ccccc6)cc5)c5ccc(O)c(c5)Oc5cc(O)cc(c5)C(NC3=O)C(=O)NC4C(=O)NC3C(=O)NC2C(=O)NC(C(=O)O)c2cc(O)cc(OC4OC(CO)C(O)C(O)C4O)c2-c2cc3ccc2O)OC(CO)C(O)C1O (centres unmarked) | µg/mL | 1 |
| CC(=O)NC1C(OC2c3ccc(c(Cl)c3)Oc3cc4cc(c3OC3OC(CO)C(O)C(O)C3NCc3ccc(-c5ccccc5)cc3)Oc3ccc(cc3Cl)CC3NC(=O)C(NCc5ccc(-c6ccccc6)cc5)c5ccc(O)c(c5)Oc5cc(O)cc(c5)C(NC3=O)C(=O)NC4C(=O)NC3C(=O)NC2C(=O)NC(C(=O)O)c2cc(O)cc(OC4OC(CO)C(O)C(O)C4O)c2-c2cc3ccc2O)OC(CO)C(O)C1O.O=C(O)C(F)(F)F (centres unmarked) | µg/mL | 0.25 |

# ---- query compound ----
## Task Looking for the measured MIC S. aureus 491 of CC(=O)NC1C(OC2c3ccc(c(Cl)c3)Oc3cc4cc(c3OC3OC(CO)C(O)C(O)C3NCc3ccc(OC(F)(F)F)cc3)Oc3ccc(cc3Cl)CC3NC(=O)C(NCc5ccc(OC(F)(F)F)cc5)c5ccc(O)c(c5)Oc5cc(O)cc(c5)C(NC3=O)C(=O)NC4C(=O)NC3C(=O)NC2C(=O)NC(C(=O)O)c2cc(O)cc(OC4OC(CO)C(O)C(O)C4O)c2-c2cc3ccc2O)OC(CO)C(O)C1O (centres unmarked) , can you help?
## Result 0.5

----------
# Tested on: H. influR D/BL+
# Type: cell-based, H. influ
# EXPERIMENTAL CONDITIONS: Table 2C; strain RD/BL+
ENDPOINT NAME: MIC H. influR D/BL+ (µg/mL)
Report the figure in µg/mL without appending any unit label.

See these solved cases before continuing.
| MOLECULE | TGT | UNIT SPEC | MIC H. influR D/BL+ |
| --- | --- | --- | --- |
| CCCCc1ccc(CNC2C(=O)NC3Cc4ccc(c(Cl)c4)Oc4cc5cc(c4OC4OC(CO)C(O)C(O)C4NCc4ccc(CCCC)cc4)Oc4ccc(cc4Cl)C(OC4OC(CO)C(O)C(O)C4NC(C)=O)C4NC(=O)C(NC(=O)C5NC(=O)C(NC3=O)c3cc(O)cc(c3)Oc3cc2ccc3O)c2ccc(O)c(c2)-c2c(OC3OC(CO)C(O)C(O)C3O)cc(O)cc2C(C(=O)O)NC4=O)cc1 (stereo not shown) | H. influR D/BL+ | µg/mL | 1 |
| CC(=O)NC1C(OC2c3ccc(c(Cl)c3)Oc3cc4cc(c3OC3OC(CO)C(O)C(O)C3NCc3ccc(-c5ccccc5)cc3)Oc3ccc(cc3Cl)CC3NC(=O)C(NCc5ccc(-c6ccccc6)cc5)c5ccc(O)c(c5)Oc5cc(O)cc(c5)C(NC3=O)C(=O)NC4C(=O)NC3C(=O)NC2C(=O)NC(C(=O)O)c2cc(O)cc(OC4OC(CO)C(O)C(O)C4O)c2-c2cc3ccc2O)OC(CO)C(O)C1O.O=C(O)C(F)(F)F (stereo not shown) | H. influR D/BL+ | µg/mL | 64 |
| CC(=O)NC1C(OC2c3ccc(c(Cl)c3)Oc3cc4cc(c3OC3OC(CO)C(O)C(O)C3NCc3ccc5ccccc5c3)Oc3ccc(cc3Cl)CC3NC(=O)C(NCc5ccc6ccccc6c5)c5ccc(O)c(c5)Oc5cc(O)cc(c5)C(NC3=O)C(=O)NC4C(=O)NC3C(=O)NC2C(=O)NC(C(=O)O)c2cc(O)cc(OC4OC(CO)C(O)C(O)C4O)c2-c2cc3ccc2O)OC(CO)C(O)C1O (stereo not shown) | H. influR D/BL+ | µg/mL | 1 |

# ---- query molecule ----
## Task Looking for the measured MIC H. influR D/BL+ of CC(=O)NC1C(OC2c3ccc(c(Cl)c3)Oc3cc4cc(c3OC3OC(CO)C(O)C(O)C3N)Oc3ccc(cc3Cl)CC3NC(=O)C(NCc5ccc(-c6ccccc6)cc5)c5ccc(O)c(c5)Oc5cc(O)cc(c5)C(NC3=O)C(=O)NC4C(=O)NC3C(=O)NC2C(=O)NC(C(=O)O)c2cc(O)cc(OC4OC(CO)C(O)C(O)C4O)c2-c2cc3ccc2O)OC(CO)C(O)C1O (stereo not shown) , can you help?
## Result 32
